# credit: patent US20220056014A1

Test: Rat pharmacokinetic test
Type: in vivo, SD rats
Details: male, Sprague-Dawley (SD), plasma, oral gavage 10 mg/kg
Property Measured: Tmax (min)
Hi! Could you send only the number? It should be in min, unit omitted.

COc1ccc([C@@H]2CN(C(=O)[C@@H](O)CO)C[C@@]2(C)[C@@H](C)O)cc1OC1CN(c2ccc(Cl)c(C)n2)C1 25.2

Reported Tmax for CCOc1ccc(N2CC(Oc3cc([C@@H]4CN(C(=O)[C@@H](O)CO)C[C@@]4(C)[C@@H](C)O)ccc3OC)C2)nc1 : what is it?
19.8

How about COc1ccc([C@@H]2CN(C(=O)[C@@H](O)CO)C[C@@]2(C)[C@@H](C)O)cc1OC1CN(c2cc(C)c(C)cn2)C1 ?
15

How about COc1ccc([C@@H]2CN(C(=O)[C@@H](O)CO)C[C@@]2(C)[C@@H](C)O)cc1OC1CN(c2ncc(C)cc2F)C1 ?
25.2

How about COc1ccc([C@@H]2CN(C(=O)[C@@H](O)CO)C[C@@]2(C)[C@@H](C)O)cc1OC1CN(c2cc(C#N)c(C)cn2)C1 ?
19.8

How about COc1ccc([C@@H]2CN(C(=O)[C@@H](O)CO)C[C@@]2(C)[C@@H](C)O)cc1OC1CN(c2cc(Cl)c(C)cn2)C1 ?
19.8
